Origin of values: ChEMBL document CHEMBL4715785

Collected pIC50 values appear next to each entry.
Molecular target: Far upstream element-binding protein 1 (Homo sapiens)
Sequence (Q96AE4 whole entry): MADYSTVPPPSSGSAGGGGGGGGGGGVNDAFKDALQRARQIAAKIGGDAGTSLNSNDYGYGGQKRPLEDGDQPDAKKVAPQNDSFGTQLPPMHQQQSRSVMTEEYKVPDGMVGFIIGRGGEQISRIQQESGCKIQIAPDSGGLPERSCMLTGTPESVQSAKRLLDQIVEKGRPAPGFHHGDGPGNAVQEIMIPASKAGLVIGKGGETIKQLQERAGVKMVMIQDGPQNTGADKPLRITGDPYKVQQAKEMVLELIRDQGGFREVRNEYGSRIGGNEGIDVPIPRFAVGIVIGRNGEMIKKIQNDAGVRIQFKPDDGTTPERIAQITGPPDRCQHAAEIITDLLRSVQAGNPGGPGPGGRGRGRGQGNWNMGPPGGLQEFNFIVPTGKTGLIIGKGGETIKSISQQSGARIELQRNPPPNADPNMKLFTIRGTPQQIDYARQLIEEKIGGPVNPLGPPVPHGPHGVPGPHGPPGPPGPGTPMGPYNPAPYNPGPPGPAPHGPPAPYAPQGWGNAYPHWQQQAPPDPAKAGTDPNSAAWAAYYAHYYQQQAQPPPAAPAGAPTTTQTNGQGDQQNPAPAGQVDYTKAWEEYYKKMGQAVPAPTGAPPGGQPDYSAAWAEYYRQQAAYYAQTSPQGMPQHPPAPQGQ
Assay: Inhibition of 6xHis-tagged human FUBP1 expressed in HEK293T cells assessed as reduction in FUBP1 interaction with biotinylated NLC chip immobilized FUSE p21 oligonucleotide incubated for 21 hrs by SPR analysis
Conditions: read-out: IC50
pIC50: −log10 of the molar value.

Below: 3 molecules and their reported pIC50.
COc1ccc(-c2cc(C(F)(F)F)n3nc(C4CC4)cc3n2)cc1OC : 3.99
FC(F)(F)c1cc(-c2cccs2)nc2cc(-c3cccs3)nn12 : < 4.00
FC(F)(F)c1cc(-c2cccnc2)nc2cc(-c3cccs3)nn12 : < 4.00

Ask: Need pIC50 of "COc1ccc(-c2cc(C(F)(F)F)n3nc(-c4cccs4)cc3n2)cc1" , thanks.
Result: < 4.00

Ask: Also need "FC(F)(F)c1cc(-c2ccncc2)nc2cc(-c3cccs3)nn12" , thanks.
Result: < 4.00

Ask: Also need "FC(F)(F)c1cc(-c2ccc(Cl)cc2)nc2cc(-c3cccs3)nn12" , thanks.
Result: < 4.00

Ask: Also need "FC(F)(F)c1cc(-c2ccccc2)nc2cc(-c3cccs3)nn12" , thanks.
Result: < 4.00
